Provide the reported Activity of each item.
molecular target: Phosphatidylinositol 4-kinase type 2-alpha (Homo sapiens); test: Inhibition of PI4K2A (unknown origin) assessed as remaining enzyme activity by ADP-Glo kinase assay relative to untreated control; parameters: concentration or dose not given beside the values
Sequence (Q9BTU6 whole entry): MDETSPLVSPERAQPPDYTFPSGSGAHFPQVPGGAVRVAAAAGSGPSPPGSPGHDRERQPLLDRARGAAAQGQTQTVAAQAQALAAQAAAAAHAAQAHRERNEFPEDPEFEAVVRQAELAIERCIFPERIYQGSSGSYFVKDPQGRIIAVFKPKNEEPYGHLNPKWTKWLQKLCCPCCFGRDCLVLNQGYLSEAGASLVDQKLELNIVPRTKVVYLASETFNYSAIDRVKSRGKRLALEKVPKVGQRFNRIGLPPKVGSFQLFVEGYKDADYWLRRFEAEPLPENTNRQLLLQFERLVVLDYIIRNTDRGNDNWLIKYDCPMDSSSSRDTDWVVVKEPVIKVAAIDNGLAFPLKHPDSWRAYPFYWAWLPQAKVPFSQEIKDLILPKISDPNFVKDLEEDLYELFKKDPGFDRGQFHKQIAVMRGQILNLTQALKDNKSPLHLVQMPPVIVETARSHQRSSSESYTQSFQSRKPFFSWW
The answer should read as a number with its unit following.

Compound: C=CCNS(=O)(=O)c1cc(-c2c(C)nc3c(NCCNC(C)=O)cc(Cl)nn23)ccc1OC
Target Desc: Phosphatidylinositol 4-kinase type 2-alpha (Homo sapiens)
Activity: 93%

List Activity for every entry below, keeping the order given.
1. CCc1cc(CNc2cc(Cl)nn3c(-c4ccc(OC)c(S(=O)(=O)NC5CC5)c4)c(C)nc23)ccn1
2. COc1ccc(-c2c(C)nc3c(NCCNC(C)=O)cc(Cl)nn23)cc1S(=O)(=O)NC1CCC(N)CC1 (configuration not stated)
3. COc1ccc(-c2c(C)nc3c(NCCNC(C)=O)cc(Cl)nn23)cc1S(=O)(=O)N1CCC(O)CC1

## Output
114%
102%
88%

List Activity for every entry below, keeping the order given.
1. CCc1cc(CNc2cc(Cl)nn3c(-c4ccc(OC)c(S(=O)(=O)N5CCCCC5)c4)c(C)nc23)ccn1
2. CCc1cc(CNc2cc(Cl)nn3c(-c4ccc(OC)c(S(=O)(=O)NCCO)c4)c(C)nc23)ccn1
3. C=CCNS(=O)(=O)c1cc(-c2c(C)nc3c(NCc4ccnc(CC)c4)cc(Cl)nn23)ccc1OC
4. CCC(CO)NS(=O)(=O)c1cc(-c2c(C)nc3c(NCCNC(C)=O)cc(Cl)nn23)ccc1OC (configuration not stated)
5. COc1ccc(-c2c(C)nc3c(NCCNC(C)=O)cc(Cl)nn23)cc1S(=O)(=O)N1CCC(CO)CC1
6. COc1ccc(-c2c(C)nc3c(NCCNC(C)=O)cc(Cl)nn23)cc1S(=O)(=O)NCCN(C)C
7. COc1ccc(-c2c(C)nc3c(NCCNC(C)=O)cc(Cl)nn23)cc1S(=O)(=O)N(C)C

## Output
1. 99%
2. 106%
3. 105%
4. 77%
5. 85%
6. 105%
7. 104%

List Activity for every entry below, keeping the order given.
1. CCc1cc(CNc2cc(Cl)nn3c(-c4ccc(OC)c(S(=O)(=O)NC(CC)CO)c4)c(C)nc23)ccn1 (configuration not stated)
2. CCc1cc(CNc2cc(Cl)nn3c(-c4ccc(OC)c(S(=O)(=O)N5CCC(O)CC5)c4)c(C)nc23)ccn1
3. COc1ccc(-c2c(C)nc3c(NCCNC(C)=O)cc(Cl)nn23)cc1S(=O)(=O)N1CCOCC1
4. CCc1cc(CNc2cc(Cl)nn3c(-c4ccc(OC)c(S(=O)(=O)NCCN(C)C)c4)c(C)nc23)ccn1
5. COc1ccc(-c2c(C)nc3c(NCCNC(C)=O)cc(Cl)nn23)cc1S(=O)(=O)N1CCCCC1

## Output
["104%", "109%", "88%", "100%", "60%"]

## Input Which Activity value belongs to `CCc1cc(CNc2cc(Cl)nn3c(-c4ccc(OC)cc4)c(C)nc23)ccn1` ?
## Output 101%

---

target: UniProt:Q9BTU6; assay: Inhibition of PI4K2A (unknown origin) assessed as remaining enzyme activity by ADP-Glo kinase assay relative to untreated control; set-up: concentration or dose not given beside the values
Endpoint: Activity (%)
Give bare numbers, in %.

Example compounds with recorded Activity:
Sample Smiles: CCc1cc(CNc2cc(Cl)nn3c(-c4ccc(OC)c(S(=O)(=O)N(C)C)c4)c(C)nc23)ccn1
Endpoint: Activity
Value Observed: 106
--
Sample Smiles: CCc1cc(CNc2cc(Cl)nn3c(-c4ccc(OC)c(S(=O)(=O)N5CCC(CO)CC5)c4)c(C)nc23)ccn1
Endpoint: Activity
Value Observed: 115

## Input Which Activity value belongs to `CNCCNS(=O)(=O)c1cc(-c2c(C)nc3c(NCCNC(C)=O)cc(Cl)nn23)ccc1OC` ?
## Output 73

Reference source for all entries: ChEMBL document CHEMBL3862042
